assay_method_text: Toxicity (LD50, survival) in the EAE model, continuous administration
Format: in vivo
run_parameters: C57BL/6J, mouse, in vivo, oral; EAE prevention model, continuous administration
outcome_measure: LD50 (mg/kg)

>>> df
                                   molecule  outcome_measure  measured
0  Cc1cnc(CNC(=O)c2/c(=N/c3ccccc3)c3ccc(N4CCCN(C)CC4)nc3n3c2sc2ccccc23)cn1             LD50        30
1  Cc1cnc(CNC(=O)c2c(=O)c3ccc(N4CCCN(C)CC4)nc3n3c2sc2ccccc23)cn1 [Compound 1, reference compound]             LD50        25

Values compiled from patent US10022382B2.
